- test method notes: Urinary excretion study in rats after oral NS, SF or CNS (LC–MS/MS)
- Format: in vivo
- condition notes: male, Sprague Dawley, rat, urine, oral, 60 mg/kg, oral NS 60 mg/kg, 24 h
Overview of recorded concentration at 24 h for various molecules
Expressed in ng/mL, but write only the number.

Consider the following illustrative entries.
CC(C)=CCC[C@](C)(O[C@@H]1O[C@H](CO)[C@@H](O)[C@H](O)[C@H]1O)[C@H]1CC[C@]2(C)[C@@H]1[C@H](O)C[C@@H]1[C@@]3(C)CC[C@H](O[C@@H]4O[C@H](CO)[C@@H](O)[C@H](O)[C@H]4O[C@@H]4O[C@H](CO)[C@@H](O)[C@H](O)[C@H]4O)C(C)(C)[C@@H]3CC[C@]12C [ginsenoside Rd]    34
CC(C)=CCC[C@](C)(O[C@@H]1O[C@H](CO[C@@H]2O[C@H](CO)[C@@H](O)[C@H](O)[C@H]2O)[C@@H](O)[C@H](O)[C@H]1O)[C@H]1CC[C@]2(C)[C@@H]1[C@H](O)C[C@@H]1[C@@]3(C)CC[C@H](O[C@@H]4O[C@H](CO)[C@@H](O)[C@H](O)[C@H]4O[C@@H]4O[C@H](CO)[C@@H](O)[C@H](O)[C@H]4O)C(C)(C)[C@@H]3CC[C@]12C [ginsenoside Rb1]    240
CC(C)=CCC[C@](C)(O[C@@H]1O[C@H](CO)[C@@H](O)[C@H](O)[C@H]1O)[C@H]1CC[C@]2(C)[C@@H]1[C@H](O)C[C@@H]1[C@@]3(C)CC[C@H](O)C(C)(C)[C@@H]3[C@@H](O[C@@H]3O[C@H](CO)[C@@H](O)[C@H](O)[C@H]3O)C[C@]12C [ginsenoside Rg1]    135

Here is the next item to consider.
Give the measured concentration at 24 h of CC(C)=CCC[C@](C)(O[C@@H]1O[C@H](CO)[C@@H](O)[C@H](O)[C@H]1O)[C@H]1CC[C@]2(C)[C@@H]1[C@H](O)C[C@@H]1[C@@]3(C)CC[C@H](O)C(C)(C)[C@@H]3[C@@H](O[C@@H]3O[C@H](CO)[C@@H](O)[C@H](O)[C@H]3O[C@@H]3O[C@@H](C)[C@H](O)[C@@H](O)[C@H]3O)C[C@]12C [ginsenoside Re] .
17

====

- test method notes: Fecal excretion study in rats after oral NS, SF or CNS (LC–MS/MS)
- Format: in vivo
- condition notes: male, Sprague Dawley; rat feces, oral NS 60 mg/kg, 24 h
attribute measured: concentration at 24 h (ng/mL)
Expressed in ng/mL, but write only the number.

CC(C)=CCC[C@](C)(O[C@@H]1O[C@H](CO)[C@@H](O)[C@H](O)[C@H]1O)[C@H]1CC[C@]2(C)[C@@H]1[C@H](O)C[C@@H]1[C@@]3(C)CC[C@H](O)C(C)(C)[C@@H]3[C@@H](O[C@@H]3O[C@H](CO)[C@@H](O)[C@H](O)[C@H]3O)C[C@]12C [ginsenoside Rg1]    2040

Give the measured concentration at 24 h of CC(C)=CCC[C@](C)(O[C@@H]1O[C@H](CO)[C@@H](O)[C@H](O)[C@H]1O)[C@H]1CC[C@]2(C)[C@@H]1[C@H](O)C[C@@H]1[C@@]3(C)CC[C@H](O)C(C)(C)[C@@H]3[C@@H](O[C@@H]3O[C@H](CO)[C@@H](O)[C@H](O)[C@H]3O[C@@H]3O[C@@H](C)[C@H](O)[C@@H](O)[C@H]3O)C[C@]12C [ginsenoside Re] .
430

CC(C)=CCC[C@](C)(O[C@@H]1O[C@H](CO)[C@@H](O)[C@H](O)[C@H]1O)[C@H]1CC[C@]2(C)[C@@H]1[C@H](O)C[C@@H]1[C@@]3(C)CC[C@H](O[C@@H]4O[C@H](CO)[C@@H](O)[C@H](O)[C@H]4O[C@@H]4O[C@H](CO)[C@@H](O)[C@H](O)[C@H]4O)C(C)(C)[C@@H]3CC[C@]12C [ginsenoside Rd] , same question.
670

CC(C)=CCC[C@](C)(O[C@@H]1O[C@H](CO[C@@H]2O[C@H](CO)[C@@H](O)[C@H](O)[C@H]2O)[C@@H](O)[C@H](O)[C@H]1O)[C@H]1CC[C@]2(C)[C@@H]1[C@H](O)C[C@@H]1[C@@]3(C)CC[C@H](O[C@@H]4O[C@H](CO)[C@@H](O)[C@H](O)[C@H]4O[C@@H]4O[C@H](CO)[C@@H](O)[C@H](O)[C@H]4O)C(C)(C)[C@@H]3CC[C@]12C [ginsenoside Rb1] , same question.
2180

====

- test method notes: Urinary excretion study in rats after oral NS, SF or CNS (LC–MS/MS)
- Format: in vivo
- condition notes: male, Sprague Dawley, rat, urine, oral, oral CNS 110 mg/kg, 72 h
attribute measured: concentration at 72 h (ng/mL)
Expressed in ng/mL, but write only the number.

CC(C)=CCC[C@](C)(O[C@@H]1O[C@H](CO)[C@@H](O)[C@H](O)[C@H]1O)[C@H]1CC[C@]2(C)[C@@H]1[C@H](O)C[C@@H]1[C@@]3(C)CC[C@H](O)C(C)(C)[C@@H]3[C@@H](O[C@@H]3O[C@H](CO)[C@@H](O)[C@H](O)[C@H]3O[C@@H]3O[C@@H](C)[C@H](O)[C@@H](O)[C@H]3O)C[C@]12C [ginsenoside Re]    5
CC(C)=CCC[C@](C)(O[C@@H]1O[C@H](CO[C@@H]2O[C@H](CO)[C@@H](O)[C@H](O)[C@H]2O)[C@@H](O)[C@H](O)[C@H]1O)[C@H]1CC[C@]2(C)[C@@H]1[C@H](O)C[C@@H]1[C@@]3(C)CC[C@H](O[C@@H]4O[C@H](CO)[C@@H](O)[C@H](O)[C@H]4O[C@@H]4O[C@H](CO)[C@@H](O)[C@H](O)[C@H]4O)C(C)(C)[C@@H]3CC[C@]12C [ginsenoside Rb1]    33

Give the measured concentration at 72 h of CC(C)=CCC[C@](C)(O[C@@H]1O[C@H](CO)[C@@H](O)[C@H](O)[C@H]1O)[C@H]1CC[C@]2(C)[C@@H]1[C@H](O)C[C@@H]1[C@@]3(C)CC[C@H](O)C(C)(C)[C@@H]3[C@@H](O[C@@H]3O[C@H](CO)[C@@H](O)[C@H](O)[C@H]3O)C[C@]12C [ginsenoside Rg1] .
93

CC(C)=CCC[C@](C)(O[C@@H]1O[C@H](CO)[C@@H](O)[C@H](O)[C@H]1O)[C@H]1CC[C@]2(C)[C@@H]1[C@H](O)C[C@@H]1[C@@]3(C)CC[C@H](O[C@@H]4O[C@H](CO)[C@@H](O)[C@H](O)[C@H]4O[C@@H]4O[C@H](CO)[C@@H](O)[C@H](O)[C@H]4O)C(C)(C)[C@@H]3CC[C@]12C [ginsenoside Rd] , same question.
16

====

- test method notes: Fecal excretion study in rats after oral NS, SF or CNS (LC–MS/MS)
- Assay type: in vivo
- condition notes: rat feces, oral NS 60 mg/kg, 72 h
Overview of recorded Excretion amount for various compounds
Expressed in µg, but write only the number.

Consider the following illustrative entries.
CC(C)=CCC[C@](C)(O[C@@H]1O[C@H](CO)[C@@H](O)[C@H](O)[C@H]1O)[C@H]1CC[C@]2(C)[C@@H]1[C@H](O)C[C@@H]1[C@@]3(C)CC[C@H](O[C@@H]4O[C@H](CO)[C@@H](O)[C@H](O)[C@H]4O[C@@H]4O[C@H](CO)[C@@H](O)[C@H](O)[C@H]4O)C(C)(C)[C@@H]3CC[C@]12C [ginsenoside Rd]    1.753
CC(C)=CCC[C@](C)(O[C@@H]1O[C@H](CO[C@@H]2O[C@H](CO)[C@@H](O)[C@H](O)[C@H]2O)[C@@H](O)[C@H](O)[C@H]1O)[C@H]1CC[C@]2(C)[C@@H]1[C@H](O)C[C@@H]1[C@@]3(C)CC[C@H](O[C@@H]4O[C@H](CO)[C@@H](O)[C@H](O)[C@H]4O[C@@H]4O[C@H](CO)[C@@H](O)[C@H](O)[C@H]4O)C(C)(C)[C@@H]3CC[C@]12C [ginsenoside Rb1]    1.710
CC(C)=CCC[C@](C)(O[C@@H]1O[C@H](CO)[C@@H](O)[C@H](O)[C@H]1O)[C@H]1CC[C@]2(C)[C@@H]1[C@H](O)C[C@@H]1[C@@]3(C)CC[C@H](O)C(C)(C)[C@@H]3[C@@H](O[C@@H]3O[C@H](CO)[C@@H](O)[C@H](O)[C@H]3O[C@@H]3O[C@@H](C)[C@H](O)[C@@H](O)[C@H]3O)C[C@]12C [ginsenoside Re]    1.155

Here is the next item to consider.
Give the measured Excretion amount of CC(C)=CCC[C@](C)(O[C@@H]1O[C@H](CO)[C@@H](O)[C@H](O)[C@H]1O)[C@H]1CC[C@]2(C)[C@@H]1[C@H](O)C[C@@H]1[C@@]3(C)CC[C@H](O)C(C)(C)[C@@H]3[C@@H](O[C@@H]3O[C@H](CO)[C@@H](O)[C@H](O)[C@H]3O)C[C@]12C [ginsenoside Rg1] .
1.673
